- ASSAY COMMENT: Encapsulation efficiency of RNA in nanoparticle compositions (RIBOGREEN assay)
- Type: physicochemical
- EXPERIMENTAL CONTEXT: Table 1B; formulated with hEPO mRNA
- Description: For nanoparticle compositions including an RNA, a QUANT-IT™ RIBOGREEN® RNA assay (Invitrogen Corporation Carlsbad, Calif.) can be used to evaluate the encapsulation of an RNA by the nanoparticle composition. […] The fluorescence intensity can be measured using a fluorescence plate reader (Wallac Victor 1420 Multilabel Counter; Perkin Elmer, Waltham, Mass.) at an excitation wavelength of, for example, about 480 nm and an emission wavelength of, for example, about 520 nm. […]
So I've got a bunch of molecules here, and I need their EE values.
Response body: numeric value in %, unit text excluded.

Just so you know, measured EE for CCCCCCCCC(C)OC(=O)CCCCCN(CCO)CCCCCCCC(=O)OC(CCCCCCCC)CCCCCCCC (centres unmarked) came out at 96.27

Just so you know, measured EE for CCCCCCCCCOC(=O)CCCCCCCN(CCCCCCCC(=O)OC(CCCCCCCC)CCCCCCCC)CCCN/C(=N/S(C)(=O)=O)N(C)C came out at 97.6

Just so you know, measured EE for CCCCCCCCCOC(=O)CCCCCCCN(CCCCCCCC(=O)OC(CCCCCCCC)CCCCCCCC)CCCC(=O)NC came out at 82.6

Just so you know, measured EE for CCCCCCCCCCCOC(=O)CCCCCN(CCO)CCCCCCCC(=O)OC(CCCCCCCC)CCCCCCCC came out at 97.92

Just so you know, measured EE for CCCCCCCCC(CCCCCCCC)OC(=O)CCCCCCCN(CCO)CCCCCCCC(=O)OCC(C)CCCCCCC (centres unmarked) came out at 96.5

Just so you know, measured EE for CCCCCCCCCOC(=O)CCCCCCCN(CCO)CCCCCCCC(=O)OC(CCCCCCCC)CCCCCCCC came out at 96.95

Just so you know, measured EE for CCCCCCCCCOC(=O)CCCCCCCN(CCCCCCCC(=O)OC(CCCCCCCC)CCCCCCCC)CCCC(N)=O came out at 99.4

Just so you know, measured EE for CCCCCCCCCOC(=O)CCCCCCCN(CCCCCCCC(=O)OC(CCCCCCCC)CCCCCCCC)CCCNC(=S)N(C)C came out at 91.23

Just so you know, measured EE for CCCCCCCCC(CCCCCCCC)OC(=O)CCCCCCCN(CCO)CCCCCC(=O)OC(C)CCCCCCCCOC(C)=O (centres unmarked) came out at 40.9

Just so you know, measured EE for CCCCCCCCCOC(=O)CCCCCCCN(CCCCCCCC(=O)OC(CCCCCCCC)CCCCCCCC)CCCNC(C)=O came out at 95.38

Just so you know, measured EE for CCCCCCCCC(CCCCCCCC)OC(=O)CCCCCCCN(CCO)CCCCCCCCCC(=O)OCCCCCCC came out at 93.9

Just so you know, measured EE for CCCC/C=C\CCC(CC/C=C\CCCC)OC(=O)CCCCCCCN(CCO)CCCCCCCC(=O)OCCCCCCCCC came out at 95.20

Just so you know, measured EE for CCCCCCCCCOC(=O)CCCCCCCN(CCO)CCCCCCCCCC(=O)OC(CCCCCC)CCCCCC came out at 91.0

Just so you know, measured EE for CCCCCCCCCOC(=O)CCCCCCCN(CCO)CCCCCCCOC(=O)C(CCCCCCCC)CCCCCCCC came out at 96.32

Just so you know, measured EE for CCCCCC=CCC=CCCCCCCCCC(CCCCCCCCC=CCC=CCCCCC)OC(=O)CCCN(C)C (centres unmarked) [MC3, reference compound] came out at 99.01

Just so you know, measured EE for CCCCCCCCCOC(=O)CCCCCCCN(CCCCCCCC(=O)OC(CCCCCCCC)CCCCCCCC)CCCNS(C)(=O)=O came out at 98.29

Just so you know, measured EE for CCCCCCCCCOC(=O)CCCCCCCN(CCCCCCCC(=O)OC(CCCCCCCC)CCCCCCCC)CCCNC(=O)NC came out at 96.40

Just so you know, measured EE for CCCCCCCCCOC(=O)CCCCCCCN(CCO)CCCCCC(=O)OC1CCC(CCCCC)CC1 (centres unmarked) came out at 76.3

Just so you know, measured EE for CCCCCCCCCOC(=O)CCCCCCCN(CCCCCCCC(=O)OC(CCCCCCCC)CCCCCCCC)CCCN/C(=N/[N+](=O)[O-])NC came out at 97.3

Just so you know, measured EE for CCCCCCCCCOC(=O)CCCCCCCN(CCCCCCCC(=O)OC(CCCCCCCC)CCCCCCCC)CCCNC(=O)N(C)C came out at 92.39
